# reported activity at 10 µM; entries follow
- System: PDGF-BB-induced VSMC proliferation
- run.description: Proliferation assay (resazurin conversion) in PDGF-BB-stimulated VSMC
- Type: cell-based, rat
- applied.conditions: Rattus norvegicus, VSMC; 10 μmol/L, PDGF-BB 20 ng/mL 48 h, resazurin; read-out: VSMC proliferation at 10 μmol/L (relative to vehicle control, RU)
Show the value, then the unit it is measured in.

compound: O=C(/C=C/c1ccc(O)c(O)c1)O[C@H](Cc1ccc(O)c(O)c1)C(=O)O
endpoint.value: 78.1%

For CCCCCCCCCCCCOC(=O)[C@@H](Cc1ccc(O)c(O)c1)OC(=O)/C=C/c1ccc(O)c(O)c1 , what is its reported activity at 10 µM?
5.4%

What value of measured activity at 10 µM is listed for CCCCCCCCOC(=O)[C@@H](Cc1ccc(O)c(O)c1)OC(=O)/C=C/c1ccc(O)c(O)c1 ?
33.8%

Name the recorded activity at 10 µM for CCOC(=O)[C@@H](Cc1ccc(O)c(O)c1)OC(=O)/C=C/c1ccc(O)c(O)c1 .
32.8%

What activity at 10 µM value was documented for this compound, O=C(O)CCc1cccc(O)c1 [Compound 5, m-hydroxyphenylpropionic acid, reference compound] ?
120%

Look up activity at 10 µM for this compound: COc1cc(/C=C/C(=O)O)ccc1O [Compound 4, ferulic acid, reference compound]
107%

Look at this compound and give its reported activity at 10 µM. O=C(O)/C=C/c1cccc(O)c1 [Compound 3, m-coumaric acid, reference compound]
107%

I am curious: what activity at 10 µM value has been reported for COC(=O)[C@@H](Cc1ccc(O)c(O)c1)OC(=O)C=Cc1ccc(O)c(O)c1 ?
41.5%

Bench note: what activity at 10 µM did CCCCOC(=O)[C@@H](Cc1ccc(O)c(O)c1)OC(=O)/C=C/c1ccc(O)c(O)c1 show?
30.8%
